Test system: Escherichia coli TOP10
Assay: shrunken log2 fold change of peptide-encoding DNA abundance (4.5 h post-induction vs induction); higher = less antimicrobial activity (less host growth inhibition)
Settings: time post-induction: 4.5 h; library: site-saturation at positions 5, 18, 19, 20
Measure: shrunken log2 fold change

>>> numeric_value("RRIRQRPPRLPRPRPRPNAWPRP")
0.0879
>>> numeric_value("RRIRVRPPRLPRPRPRPENYPRP")
-0.0159
>>> numeric_value("RRIRFRPPRLPRPRPRPCVFPRP")
-0.0936
>>> numeric_value("RRIRFRPPRLPRPRPRPMACPRP")
-0.00146
>>> numeric_value("RRIRNRPPRLPRPRPRPPQGPRP")
0.192
>>> numeric_value("RRIRGRPPRLPRPRPRPLKFPRP")
0.11
>>> numeric_value("RRIRGRPPRLPRPRPRPYLEPRP")
0.296
>>> numeric_value("RRIRGRPPRLPRPRPRPPKEPRP")
0.176
>>> numeric_value("RRIRIRPPRLPRPRPRPPLWPRP")
0.504
>>> numeric_value("RRIRARPPRLPRPRPRPKTWPRP")
0.261
>>> numeric_value("RRIRARPPRLPRPRPRPKEKPRP")
0.0797
>>> numeric_value("RRIRSRPPRLPRPRPRPHRNPRP")
-0.489
>>> numeric_value("RRIRARPPRLPRPRPRPIQCPRP")
0.00559
>>> numeric_value("RRIRERPPRLPRPRPRPWPRPRP")
0.223
>>> numeric_value("RRIRSRPPRLPRPRPRPWPSPRP")
0.117
>>> numeric_value("RRIRNRPPRLPRPRPRPTCMPRP")
0.0558
>>> numeric_value("RRIRMRPPRLPRPRPRPIILPRP")
-0.0572
>>> numeric_value("RRIRKRPPRLPRPRPRPPYNPRP")
-0.149
>>> numeric_value("RRIRERPPRLPRPRPRPYHAPRP")
0.00489
>>> numeric_value("RRIRLRPPRLPRPRPRPNHKPRP")
-0.335
>>> numeric_value("RRIRSRPPRLPRPRPRPNSRPRP")
-0.105
>>> numeric_value("RRIRHRPPRLPRPRPRPMNIPRP")
-0.214
>>> numeric_value("RRIRDRPPRLPRPRPRPSCCPRP")
1.57
>>> numeric_value("RRIRTRPPRLPRPRPRPVHRPRP")
-0.0993
>>> numeric_value("RRIRLRPPRLPRPRPRPPMHPRP")
0.363
>>> numeric_value("RRIRMRPPRLPRPRPRPCWQPRP")
0.0757
>>> numeric_value("RRIRSRPPRLPRPRPRPVTSPRP")
-0.132
>>> numeric_value("RRIRNRPPRLPRPRPRPTLIPRP")
-0.461
>>> numeric_value("RRIRYRPPRLPRPRPRPFYHPRP")
-0.635
>>> numeric_value("RRIRVRPPRLPRPRPRPNEPPRP")
0.097
>>> numeric_value("RRIRERPPRLPRPRPRPPADPRP")
0.152
>>> numeric_value("RRIRTRPPRLPRPRPRPNPYPRP")
-0.121
>>> numeric_value("RRIRWRPPRLPRPRPRPGLTPRP")
0.0693
>>> numeric_value("RRIRDRPPRLPRPRPRPHCWPRP")
0.15
>>> numeric_value("RRIRFRPPRLPRPRPRPCTPPRP")
-0.158
>>> numeric_value("RRIRRRPPRLPRPRPRPNDEPRP")
-0.0407
>>> numeric_value("RRIRKRPPRLPRPRPRPYNDPRP")
-0.00691
>>> numeric_value("RRIRIRPPRLPRPRPRPIYGPRP")
-0.000842
>>> numeric_value("RRIRHRPPRLPRPRPRPSMDPRP")
-0.828
>>> numeric_value("RRIRERPPRLPRPRPRPDVPPRP")
-0.117
>>> numeric_value("RRIRQRPPRLPRPRPRPGQVPRP")
0.111
>>> numeric_value("RRIRDRPPRLPRPRPRPCFQPRP")
-0.0196
>>> numeric_value("RRIRPRPPRLPRPRPRPQAHPRP")
-0.243
>>> numeric_value("RRIRTRPPRLPRPRPRPDRQPRP")
-0.0344
>>> numeric_value("RRIRQRPPRLPRPRPRPQLFPRP")
0.0846
>>> numeric_value("RRIRIRPPRLPRPRPRPGWAPRP")
0.22
>>> numeric_value("RRIRDRPPRLPRPRPRPKETPRP")
-0.0231
>>> numeric_value("RRIRFRPPRLPRPRPRPSNSPRP")
-0.723
>>> numeric_value("RRIRWRPPRLPRPRPRPSQEPRP")
0.0253
>>> numeric_value("RRIRMRPPRLPRPRPRPRHPPRP")
0.617
>>> numeric_value("RRIRVRPPRLPRPRPRPDARPRP")
0.262
>>> numeric_value("RRIRSRPPRLPRPRPRPLFHPRP")
-0.63
>>> numeric_value("RRIRMRPPRLPRPRPRPDGWPRP")
1.48
>>> numeric_value("RRIRTRPPRLPRPRPRPFSLPRP")
-0.0845
>>> numeric_value("RRIRQRPPRLPRPRPRPAGMPRP")
-0.148
>>> numeric_value("RRIRHRPPRLPRPRPRPAKEPRP")
0.0203
>>> numeric_value("RRIRCRPPRLPRPRPRPEFVPRP")
0.105
>>> numeric_value("RRIRFRPPRLPRPRPRPGMDPRP")
-0.25
>>> numeric_value("RRIRVRPPRLPRPRPRPASTPRP")
-0.311

###

Tested on: Escherichia coli TOP10
Experiment: shrunken log2 fold change of peptide-encoding DNA abundance (4.5 h post-induction vs induction); higher = less antimicrobial activity (less host growth inhibition)
Conditions: time post-induction: 4.5 h; library: site-saturation at positions 5, 18, 19, 20
The entries below come with measured shrunken log2 fold change values attached.
Measure: shrunken log2 fold change

>>> numeric_value("RRIRMRPPRLPRPRPRPYMGPRP")
-0.0411
>>> numeric_value("RRIRIRPPRLPRPRPRPLHDPRP")
0.181
>>> numeric_value("RRIRHRPPRLPRPRPRPCCEPRP")
-0.366
>>> numeric_value("RRIRFRPPRLPRPRPRPTVPPRP")
0.341
>>> numeric_value("RRIRHRPPRLPRPRPRPTDLPRP")
-0.154
>>> numeric_value("RRIRMRPPRLPRPRPRPQAIPRP")
-0.00149
>>> numeric_value("RRIRSRPPRLPRPRPRPVNTPRP")
-0.691
>>> numeric_value("RRIRNRPPRLPRPRPRPMGTPRP")
-0.0967
>>> numeric_value("RRIRYRPPRLPRPRPRPIVTPRP")
-0.015
>>> numeric_value("RRIRGRPPRLPRPRPRPTTAPRP")
1.31

###

Test system: Escherichia coli TOP10
Experiment: shrunken log2 fold change of peptide-encoding DNA abundance (4.5 h post-induction vs induction); higher = less antimicrobial activity (less host growth inhibition)
Settings: time post-induction: 4.5 h; library: site-saturation at positions 5, 18, 19, 20
Measure: shrunken log2 fold change

>>> numeric_value("RRIRIRPPRLPRPRPRPFEVPRP")
-0.162
>>> numeric_value("RRIRLRPPRLPRPRPRPLNSPRP")
-0.389
>>> numeric_value("RRIRYRPPRLPRPRPRPGMAPRP")
-0.262
>>> numeric_value("RRIRDRPPRLPRPRPRPDPFPRP")
-0.00228
>>> numeric_value("RRIRQRPPRLPRPRPRPWFFPRP")
-0.0396
>>> numeric_value("RRIRQRPPRLPRPRPRPFVLPRP")
-0.277
>>> numeric_value("RRIRCRPPRLPRPRPRPEDCPRP")
0.173
>>> numeric_value("RRIRHRPPRLPRPRPRPSIGPRP")
-0.335
>>> numeric_value("RRIRIRPPRLPRPRPRPHGGPRP")
-0.0479
>>> numeric_value("RRIRGRPPRLPRPRPRPWGSPRP")
0.268
>>> numeric_value("RRIRPRPPRLPRPRPRPRHCPRP")
0.115
>>> numeric_value("RRIRKRPPRLPRPRPRPIFEPRP")
0.381
>>> numeric_value("RRIRVRPPRLPRPRPRPRTCPRP")
-0.143
>>> numeric_value("RRIRVRPPRLPRPRPRPDAAPRP")
0.976
>>> numeric_value("RRIRDRPPRLPRPRPRPIIKPRP")
-0.0129
>>> numeric_value("RRIRVRPPRLPRPRPRPSPPPRP")
-0.0761
>>> numeric_value("RRIRLRPPRLPRPRPRPLYCPRP")
-0.366
>>> numeric_value("RRIRWRPPRLPRPRPRPKGSPRP")
0.0359
>>> numeric_value("RRIRARPPRLPRPRPRPLDQPRP")
1.44

###

Test system: Escherichia coli TOP10;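 also: peptides expressed intracellularly from a pBAD plasmid library in pooled LB shake-flask culture, induced with 0.3% L-arabinose, DNA abundance read by NGS, three biological replicates, DESeq2 with apeglm shrinkage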
Assay: shrunken log2 fold change of peptide-encoding DNA abundance (4.5 h post-induction vs induction); higher = less antimicrobial activity (less host growth inhibition)
Conditions: time post-induction: 4.5 h; library: site-saturation at positions 5, 18, 19, 20
Is shrunken log2 fold change at least 0.05? Then condition met. If not, condition not met.

>>> assigned_label("RRIRSRPPRLPRPRPRPPAWPRP")
"condition met"
>>> assigned_label("RRIRQRPPRLPRPRPRPWVLPRP")
"condition met"
>>> assigned_label("RRIRQRPPRLPRPRPRPLCNPRP")
"condition not met"
>>> assigned_label("RRIRKRPPRLPRPRPRPGIMPRP")
"condition not met"
>>> assigned_label("RRIRPRPPRLPRPRPRPHIHPRP")
"condition not met"
>>> assigned_label("RRIRYRPPRLPRPRPRPTRGPRP")
"condition met"
>>> assigned_label("RRIRFRPPRLPRPRPRPAIYPRP")
"condition not met"
>>> assigned_label("RRIRQRPPRLPRPRPRPFCIPRP")
"condition not met"
>>> assigned_label("RRIRDRPPRLPRPRPRPIVAPRP")
"condition not met"
>>> assigned_label("RRIRYRPPRLPRPRPRPECSPRP")
"condition not met"
>>> assigned_label("RRIRLRPPRLPRPRPRPPRHPRP")
"condition met"
>>> assigned_label("RRIRPRPPRLPRPRPRPSLRPRP")
"condition not met"
>>> assigned_label("RRIRWRPPRLPRPRPRPSGLPRP")
"condition met"
>>> assigned_label("RRIRGRPPRLPRPRPRPDNLPRP")
"condition not met"
>>> assigned_label("RRIRDRPPRLPRPRPRPIPEPRP")
"condition not met"
>>> assigned_label("RRIRWRPPRLPRPRPRPDFHPRP")
"condition not met"
>>> assigned_label("RRIRCRPPRLPRPRPRPAGYPRP")
"condition not met"
>>> assigned_label("RRIRPRPPRLPRPRPRPHTKPRP")
"condition not met"
>>> assigned_label("RRIRPRPPRLPRPRPRPGLGPRP")
"condition met"
>>> assigned_label("RRIRSRPPRLPRPRPRPNKQPRP")
"condition not met"
>>> assigned_label("RRIRTRPPRLPRPRPRPDNSPRP")
"condition not met"
>>> assigned_label("RRIRARPPRLPRPRPRPCHCPRP")
"condition met"
>>> assigned_label("RRIRNRPPRLPRPRPRPCLKPRP")
"condition not met"
>>> assigned_label("RRIRYRPPRLPRPRPRPPQPPRP")
"condition met"
>>> assigned_label("RRIRKRPPRLPRPRPRPRLDPRP")
"condition met"
>>> assigned_label("RRIRQRPPRLPRPRPRPDDNPRP")
"condition not met"
>>> assigned_label("RRIRPRPPRLPRPRPRPLILPRP")
"condition not met"
